- measured on: T1, Human Siglec-15, His Tag (human Siglec-15 full-length extracellular domain linked with His tag) (human, UniProt Q6ZMC9 20-263)
- T1 construct: Bought from ACROBiosystems; also called Siglec-15 protein; SG5-H52H3
- T1 sequence: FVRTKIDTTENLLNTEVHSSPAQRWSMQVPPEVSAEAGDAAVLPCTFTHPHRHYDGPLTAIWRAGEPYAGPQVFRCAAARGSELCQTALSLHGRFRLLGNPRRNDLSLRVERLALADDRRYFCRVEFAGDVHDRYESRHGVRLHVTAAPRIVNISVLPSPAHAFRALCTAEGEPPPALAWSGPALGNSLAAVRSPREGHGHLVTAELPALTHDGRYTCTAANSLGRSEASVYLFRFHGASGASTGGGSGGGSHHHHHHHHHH
- protocol: Octet BLI epitope binning, Siglec-15 His on HIS1K sensor; competitor 124B11F6
attribute measured: cross-competition score (%)
Give bare numbers, in %.

Before answering, review these 3 worked examples.
255C12B10 chimeric antibody (antibody, V domains shown, Mouse variable regions combined with human IgG1 (N297A) constant regions) VH: EVQLQQSGPELVKPGASVKMSCKASGYTFTGYNMNWVKQSHGKSLEWIGYINPNNGGTRYNQKFKGKATLTINKSSSTAYMELRSLTSEDSAVYYCARDYGIDYWGQGTTLTVSS VL: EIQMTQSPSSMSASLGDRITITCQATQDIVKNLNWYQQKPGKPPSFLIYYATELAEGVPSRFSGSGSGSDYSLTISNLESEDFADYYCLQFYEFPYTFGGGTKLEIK
18.9
75E1F2 chimeric antibody (antibody, V domains shown, Mouse variable regions combined with human IgG1 (N297A) constant regions) VH: EVQLVESGGGSVKPGGSLKLSCAASGFTFSDYGMHWVRQAPEKGLEWITYISSGSSIIDYSDTVKGRFTISRDNAKDTLFLQMTSLRSEDTAIYYCVRREDHYAMDYWGQGTSVTVSS VL: DIVMTQSHKFLSTSVGDRVSITCKASQDVYTAVAWFQQKPGQSPKLLFYSASYRFTGVPDRFNGSGSGTDFTLTITSMQAEDLAVYYCQQHYSTPWTFGGGTKLEIK
25.6
174C11C9 chimeric antibody (antibody, human IgG1, V domains shown, also called 174C11C9-mHL) VH: EVQLQQSGPVLVKPGASVKMSCEASGYIFTDYYMNWVKQSPGKSLEWIGVFNPYSGGISYNQKFKGKATLTVDTSSSTAYMELNSLTSEDSAVYYCARDYYYLSSHGFYALDYWGQGTSVTVSS VL: DIVLTQSPASLAVSLGQRATISCRASESVDSYGNSFIHWYQQRPGRPPKLLMYRASNLESGIPARFSGSGSRTDFTLTIDPVEADDVATYYCQQSNEDPLTFGAGTKLELK
73.4

Next binder, please.
Qu. Could you tell me which cross-competition score is on file for 21F6C6 chimeric antibody (antibody, human IgG1, V domains shown, also called 21F6C6-mHL) VH: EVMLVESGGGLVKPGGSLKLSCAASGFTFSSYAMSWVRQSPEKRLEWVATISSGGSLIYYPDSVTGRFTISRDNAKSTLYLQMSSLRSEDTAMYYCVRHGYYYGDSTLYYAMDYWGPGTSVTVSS VL: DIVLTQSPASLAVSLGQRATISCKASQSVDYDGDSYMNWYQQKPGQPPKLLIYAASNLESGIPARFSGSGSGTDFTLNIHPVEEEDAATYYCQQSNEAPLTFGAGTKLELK ?
Ans. 101
